experiment: Quantitative High-Throughput drug screen in 47 multiple myeloma cell lines against the NCATS MIPE library collection: PCM6_Riken cell viability assay (AID 1919870); conditions: CellTiter-Glo ATP, 48 h; series mostly up to 45.8 µM; also: nearly all actives have a fitted effect of over 30% in size
Inconclusive results are not listed. Activity calls are given as the source filed them. Calls follow the shape of the dose curve; as a rule, active = well fitted cell-killing curve with a large enough effect; inconclusive = small, poorly fitted or top-dose-only effect, or effect the other way; inactive = no such curve, though single readings can be large or run the other way.
Labels: active, inactive

* O=C1c2cccc(O)c2C(=O)c2c(O)cc(CO)cc21 | inactive
* O=C(NNC(=O)c1ccc(CNS(=O)(=O)c2ccc(F)c(Cl)c2)cc1)c1ccccc1 | inactive
* C[C@@]12C(=O)OC(=O)[C@@]1(C)C1CCC2O1 | active
* CS(=O)(=O)N1CCc2c(-c3cnc(N)nc3)nc(N3CCOCC3)nc21 | active
* CS[C@H]1SC[C@@H]2C(=O)N(C)[C@H](C(C)C)C(=O)OC[C@H](NC(=O)c3cnc4ccccc4n3)C(=O)N[C@H](C)C(=O)N(C)[C@@H]1C(=O)N(C)[C@H](C(C)C)C(=O)OC[C@H](NC(=O)c1cnc3ccccc3n1)C(=O)N[C@H](C)C(=O)N2C | active
* CC[C@H]1OC(=O)[C@H](C)[C@@H](O[C@H]2C[C@@](C)(OC)[C@@H](O)[C@H](C)O2)[C@H](C)[C@@H](O[C@@H]2O[C@@H](C)C[C@H](N(C)C)[C@@H]2O)[C@](C)(O)C[C@@H](C)C(=O)[C@H](C)[C@@H](O)[C@]1(C)O | inactive
* COc1ccc([C@@H]2CNC(=O)C2)cc1OC1CCCC1 | active

* * *

experiment: Primary qHTS for inhibitors of nuclear receptor binding SET domain protein 2 (NSD2) in an isogenic RCH-ACV NSD2 p.E1099K mutant (9B) (AID 1645876); conditions: RCH-ACV (leukaemia line) NSD2 E1099K (9B) viability, CellTiter-Glo, 72 h; series mostly up to 44.9 µM; also: nearly all actives have a fitted effect of over 70% in size
Records with an inconclusive call do not appear. Active and inactive are the calls of the source. Calls come from the whole dose curve; as a rule, active = well fitted inhibition curve with a large enough effect; inconclusive = small, poorly fitted or top-dose-only effect; inactive = flat fitted curve, though single readings scatter.
Labels: active, inactive

* O=C(Nc1cc2cc[nH]c2cn1)c1ccccc1 | active
* C[C@H]1[C@@H](OC(=O)CCC(=O)O)O[C@@H]2O[C@@]3(C)CC[C@@H]4[C@H](C)CC[C@@H]1[C@@]24OO3 | active
* COc1cc(C[C@@H](CO)[C@H](CO)Cc2ccc(O)c(OC)c2)ccc1O | inactive
* COc1ccc([C@@H]2CNC(=O)C2)cc1OC1CCCC1 | inactive
* C[N+](C)([O-])CCNc1ccc(NCC[N+](C)(C)[O-])c2c1C(=O)c1c(O)ccc(O)c1C2=O | active
* O=C1NCCc2[nH]c(-c3ccncc3)cc21 | active
* COC(=O)[C@H](CCCN=C(N)N)NS(=O)(=O)c1ccc(C)cc1 | inactive
* CCCNS(=O)(=O)Nc1ncnc(OCCOc2ncc(Br)cn2)c1-c1ccc(Br)cc1 | active
* O=S(=O)(O)CCSSCCS(=O)(=O)O | inactive
* CC(C(C)N1CC(=O)NC(=O)C1)N1CC(=O)NC(=O)C1 (configuration not stated) | active
* CCOC(=O)C1=C(C)NC(=S)NC1c1cccc(O)c1 (configuration not stated) | inactive
* CC(=O)NC(CS)C(=O)O (configuration not stated) | inactive
* Cc1cnc(Nc2ccc(N3CCN(C)CC3)cc2)nc1Nc1cccc(S(=O)(=O)NC(C)(C)C)c1 | active
* O=C(O)CCCCC(CCSCc1ccccc1)SCc1ccccc1 (configuration not stated) | inactive
* C[C@H](NC(=O)Cc1cc(F)cc(F)c1)C(=O)N[C@H](C(=O)OC(C)(C)C)c1ccccc1 | inactive
* N=c1ccn2c(n1)O[C@H]1[C@@H](O)[C@@H](CO)O[C@H]12 | active
* COc1ccc(Nc2cc(-c3cnc(N)nc3)nc(N3CCOCC3)n2)cn1 | active
* CC(C)NC[C@@H](C(=O)N1CCN(c2ncnc3c2[C@H](C)C[C@H]3O)CC1)c1ccc(Cl)cc1 | active
* Cn1cnc(=N)c2[nH]cnc21 | inactive
* Cc1cc(Nc2ncc3c(n2)N(C)C(=O)N(c2cc(NC(=O)c4cccc(C(F)(F)F)c4)ccc2C)C3)n(C)n1 | active
* Cc1cn([C@@H]2O[C@H](CO)[C@@H](O)[C@H]2F)c(=O)[nH]c1=O | inactive
* CCCCCCCN(CC)CCCC(O)c1ccc(NS(C)(=O)=O)cc1 (configuration not stated) | inactive
